These data points were gathered from paper PMC9913425.

# Tested on: Jurkat cells
# test.description: Apoptosis/necrosis induction (Annexin V Alexa Fluor488, 7AAD staining)
# Assay type: cell-based
# experimental.conditions: compound at IC50 concentration, incubation 2 h
Answer no (0) if Apoptosis (%) Necrosis is under 2%, and yes (1) if it is 2% or more.

| compound | target.or.system | cat |
| --- | --- | --- |
| C[C@@H]1CC[C@]2(C(=O)OCCn3cc[n+](C)c3)CC[C@]3(C)C(=CCC4[C@@]5(C)CC[C@H](O)C(C)(C)C5CC[C@]43C)C2[C@H]1C (stereo partly drawn) [10a] | Jurkat cells | no (0) |
| C=C(C)[C@@H]1CC[C@]2(C(=O)OCCn3cc[n+](C)c3)CC[C@]3(C)C(CCC4[C@@]5(C)CC[C@H](O)C(C)(C)C5CC[C@]43C)C12 (stereo partly drawn) [11a] | Jurkat cells | no (0) |
| CC(=O)[O-].C[n+]1ccn(CCCCCCOC(=O)[C@]23CCC(C)(C)CC2C2=CCC4[C@@]5(C)CC[C@H](O)C(C)(C)C5CC[C@@]4(C)[C@]2(C)CC3)c1 (stereo partly drawn) [13d] | Jurkat cells | yes (1) |

Task: Does Apoptosis (%) Necrosis meet or surpass 2% for C[n+]1ccn(CCCCCCOC(=O)[C@]23CCC(C)(C)CC2C2=CCC4[C@@]5(C)CC[C@H](O)C(C)(C)C5CC[C@@]4(C)[C@]2(C)CC3)c1.O=S(=O)([O-])c1ccccc1 (stereo partly drawn) [13e] ?
Result: no (0)

Task: Does Apoptosis (%) Necrosis meet or surpass 2% for CC[N+](CC)(CC)CCCCCCOC(=O)[C@]12CCC(C)(C)CC1C1=CCC3[C@@]4(C)CC[C@H](O)C(C)(C)C4CC[C@@]3(C)[C@]1(C)CC2 (stereo partly drawn) [12e] ?
Result: yes (1)

Task: Does Apoptosis (%) Necrosis meet or surpass 2% for C[C@@H]1CC[C@]2(C(=O)OCCCCCCn3cc[n+](C)c3)CC[C@]3(C)C(=CCC4[C@@]5(C)CC[C@H](O)C(C)(C)C5CC[C@]43C)C2[C@H]1C (stereo partly drawn) [10c] ?
Result: no (0)

====

Where a name gives a salt, the structure may show the parent alone.
measured.quantity: melting point

Answered examples (3):
| compound | recorded.value |
| --- | --- |
| CC(=O)O[C@H]1CC[C@@]2(C)C(CC[C@]3(C)C2CC=C2C4CC(C)(C)CC[C@]4(C(=O)OCCCCCCn4cc[n+](C)c4)CC[C@]23C)C1(C)C (stereo partly shown) (as salt: bromide) | 151 to 153 °C |
| C[n+]1ccn(CCCCOC(=O)[C@]23CCC(C)(C)CC2C2=CCC4[C@@]5(C)CC[C@H](O)C(C)(C)C5CC[C@@]4(C)[C@]2(C)CC3)c1 (stereo partly shown) (as salt: bromide) | 148 to 150 °C |
| CC(=O)O[C@H]1CC[C@@]2(C)C(CC[C@]3(C)C2CC=C2C4CC(C)(C)CC[C@]4(C(=O)OCCCCCCOC(=O)c4cncn4C)CC[C@]23C)C1(C)C (stereo partly shown) | 123 to 125 °C |

--- query ---
Task: Name the recorded melting point for CC(=O)O[C@H]1CC[C@@]2(C)C(CC[C@]3(C)C2CC=C2C4CC(C)(C)CC[C@]4(C(=O)OCCCCCCOC(=O)c4nccn4C)CC[C@]23C)C1(C)C (stereo partly shown) .
Result: 134 to 136 °C
